- Assay method text: blockers of RIG-like receptor reporter activation – cell-based, Sendai virus stimulus, luciferase, 10K MLSCN set, TLR/RLR signaling modifier project, primary screen (AID 602276);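 also: firefly luciferase from ISG56 promoter only with Renilla not read in this screen; 0% = Sendai virus plus DMSO and 100% = medium plus DMSO without virus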
- Condition details: HEK293 RL24 IRF3 luciferase reporter, at 10 µM, stronger effect = higher value
Endpoint label: inhibition (%)

* Cc1nc(SCC(=O)c2c[nH]c3ccccc23)n[nH]1 | 17.1
* COc1cc2nc(C3CCC3)n(NC(=O)C3CCCC(OC)C3)c(=O)c2cc1OC (stereo unspecified) | 15.8
* CCc1ccc(NC(=O)c2cc(-c3ccco3)on2)cc1 | -42.1
* CCn1cc(C(=O)N2CCN(C(=O)c3ccco3)CC2)c2cc(OC)c(OC)cc2c1=O | 13.9
* CC(=O)Nc1ccc(NC(=O)c2ccccc2F)cc1 | -10.5
* CCCOc1ccc(C2c3c(oc4ccccc4c3=O)C(=O)N2CCCN2CCOCC2)cc1 (stereo unspecified) | 11.7
* CC(=O)[C@H]1CC[C@H]2[C@@H]3CCC4=CC(=O)CC[C@]4(C)[C@H]3CC[C@]12C | 3.73
* CCN1CCN(Cc2c(C)[nH]c3ccc(OC)cc3c2=O)CC1 | 19.5
* Cc1cccc(C)c1OCC(=O)Nc1cccc(NC(=O)c2ccco2)c1 | 13.3
* O=C1CSC(c2cn(-c3ccccc3)nc2-c2cccs2)N1CC1CCCO1 (stereo unspecified) | 18.7
* O=C1CC(N2CCC(C(=O)N3CCCCC3)CC2)C(=O)N1 (stereo unspecified) | 19.9

====

- Assay method text: inhibitors of TNFa-induced NFkB p65 translocation, primary screen, imaging, HUVEC, MLSMR starter and 10KST1 sets (AID 438);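 also: compound added about 3h40 before a 20 min TNFalpha stimulation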
- Condition details: HUVEC TNFa-induced p65 nuclear translocation; measured here: nuclei count (cytotoxicity indicator), at 2.08 µM
Readings of cell count for the listed compounds
Endpoint label: cell count

* COC(=O)c1cc(O)c(OCc2ccccc2)c(O)c1 | 775
* O=C(NC1CCc2ccccc21)C1CCN(S(=O)(=O)c2ccc(-n3cnnn3)cc2)CC1 (configuration not stated) | 698
* CCOC(=O)C(CC)Sc1ncnc2nc[nH]c12 (configuration not stated) | 351
* Cc1ccc2nc(SCC(=O)NCc3ccco3)c(C#N)cc2c1 | 388
* CN1CCCc2cc(C#N)c(=O)[nH]c21 | 492
* CCCCNC(=O)c1c(C)cc(=O)oc1C | 541
* COc1cc(NC(=O)Cc2nn(C)c(=O)c3ccccc23)cc(OC)c1 | 693
* Nc1c(C2=NCCO2)nnn1Cc1ccccc1 | 612
* COc1ccc(OC)c(NC(=O)C2CCN(c3cc(-c4ccccc4)nc4ncnn34)CC2)c1 | 449
* CCCCN(CCCNC(=O)C1CCN(S(=O)(=O)CC)CC1)c1ccccc1 | 547
* Cc1ccc(S(=O)(=O)N[C@@H](C)C(=O)N2CCC(C(=O)N3CCC[C@H]3C(=O)O)CC2)cc1 | 361
* COc1ccc(-c2cn3cc(C)ccc3n2)cc1OC | 442

====

- Assay method text: TLR3 IRF3 reporter activation blockers – cell-based, poly I:C stimulus, luciferase, 10K MLSCN set, primary screen (AID 602277)
- Condition details: HEK293-TLR3 RL24 IRF3 luciferase reporter, at 10 µM, stronger effect = higher value
Readings of inhibition for the listed molecules
Endpoint label: inhibition (%)

- Cc1ccc(N2CC(C(=O)Nc3ccc4c(c3)OCO4)CC2=O)cc1 (configuration not stated): 21.6
- C=C(C)Cn1c(SCC)nc2ccccc2c1=O: 22.7
- O=C(CS(=O)(=O)Cc1ccccc1)Nc1nc2ccccc2s1: 23.6
- O=C(c1noc2c1CCc1ccccc1-2)N1CCOCC1: -37.8
- O=C(NCc1ccc2c(c1)OCO2)c1cc2n(n1)C(C(F)(F)F)CC(c1ccc3c(c1)OCO3)N2 (configuration not stated): 24.4
- CC[C@]1(O)C[C@@H]2CN(CCc3c([nH]c4ccccc34)[C@@](C(=O)OC)(c3cc4c(cc3OC)N(C)[C@H]3[C@@](O)(C(=O)OC)[C@H](OC(C)=O)[C@]5(CC)C=CCN6CC[C@]43[C@@H]65)C2)C1: 90.5
- CC(C(=O)NCCCN1CCOCC1)n1cccc1C(=O)c1ccccc1 (configuration not stated): 17
- N/C(Cn1nnc(-c2ccccc2)n1)=N\O: 89.1
- O=C(COC(=O)c1ccc(NS(=O)(=O)c2ccc3c(c2)OCCO3)cc1)NCC1CCCO1 (configuration not stated): 19.1
- CCS(=O)(=O)N1CCC(C(=O)NCc2cccs2)CC1: 13.7
- CC(C)NC(=O)NC(=O)COc1cccc2c1OC(C)(C)C2: 29.7
- Cc1nnc(SCC(=O)NC(C)(C)C)n1CCc1ccccc1: 8.89
- COc1cc(-c2nnc(SCC(=O)c3ccc(C)cc3)o2)cc(OC)c1OC: -7.77
- CC(=O)C1=C(O)C(=O)N(Cc2ccco2)C1c1ccc2c(c1)OCO2 (configuration not stated): 11.9
- CCNC(=O)C1CC(=O)N(Cc2ccc3c(c2)OCO3)C(=Nc2ccc(OCC)cc2)S1 (configuration not stated): 21.2
- O=C(Nc1nc2ccc(S(=O)(=O)N3CCCC3)cc2s1)C1CCCO1 (configuration not stated): 15.2
- COc1ccc(CN2C(=O)C(O)(CC(=O)c3c(C)n[nH]c3C)c3ccccc32)cc1OC (configuration not stated): 9.8
- COc1cccc(Nc2c(F)c(F)c(F)c(F)c2C(=O)O)c1: 11.4
- Cc1ccc(-c2cc(C(F)F)nc(NCc3cccnc3)n2)cc1: -13.6
- CSC(=O)CC(=O)NC(=O)c1ccccc1: 5.94
- Cc1cccc(OCC(=O)Nc2ccccc2N2CCN(C(=O)C(C)C)CC2)c1C: 25.9
- O=C(Cn1cnc2sc(-c3ccccc3)cc2c1=O)N1CCOCC1: -5.03
- CCCC(C)C(=O)Nc1ccc(C(N)=O)cc1 (configuration not stated): 13.5
- O=c1c2ccccc2cnn1-c1nc2ccccc2s1: 93.6
- Cc1ccc(-c2noc(C3CCCN(C(=O)c4ccc(F)cc4F)C3)n2)cc1 (configuration not stated): -43.3
- NC(N)=Nc1nc(CSCC/C(N)=N/S(N)(=O)=O)cs1: 42.5
- CN1C(=O)NC(NC(=O)C2CCCCC2)(C(F)(F)F)C1=O (configuration not stated): 17.5

====

- Assay method text: TLR3 IRF3 reporter activation blockers – cell-based, poly I:C stimulus, luciferase, 10K MLSCN set, primary screen (AID 602277)
- Condition details: HEK293-TLR3 RL24 IRF3 luciferase reporter, at 10 µM, stronger effect = higher value
Endpoint label: inhibition (%)

• O=c1c2nnn(Cc3ccccc3)c2ncn1-c1ccccc1 = 25.9
• C#CCN1C(=O)C(O)(CC(=O)c2cccc(OC)c2)c2ccccc21 (centres undefined) = 14.1
• Cc1cc(-c2nc3ncccc3o2)ccc1N = -101
• CCCCNC(=O)NS(=O)(=O)c1ccc(C)cc1 = 5.7
• CCOc1ccc(C(=O)N2CCC(C(=O)c3ccc4c(c3)OCCO4)CC2)cc1 = 2.96
• Cc1ccc2c(COn3nnc4ccc(S(=O)(=O)N(C)C)cc43)cc(=O)oc2c1C = 10.1
• CC1=NS(=O)(=O)c2cc(Cl)ccc2N1 = 41.7
• Cc1noc(C)c1COc1cccc(C(=O)Oc2ccc3c(c2)OCO3)c1 = 15.8
• CC(Oc1ccc(Cl)cc1Cl)c1nc(-c2ccc(NC(=O)c3cccnc3)cc2)no1 (centres undefined) = -74.3
• COC(=O)c1ccccc1NC(=O)c1noc2c1CC(C(C)(C)C)CC2 (centres undefined) = 4.53
• CCC(Oc1ccc2ccccc2c1)C(=O)O (centres undefined) = -32.2
• COc1ccc(N2C(=O)CC(NC3CC3)C2=O)cc1 (centres undefined) = 24
• O=C1c2ccccc2NC(c2ccco2)N1O (centres undefined) = 10.8
• CCOC(=O)c1[nH]c(C)c(C(=O)Nc2ccccc2F)c1C = -0.299
• COc1cccc(C(=O)Nc2cnc(NC(=O)c3ccco3)cc2C)c1 = -23.5
• CC(C)(C)C1=C[C@@H](CO)C[C@@H](CO)C1 = 23.8
• O=C(Cc1ccc(S(=O)(=O)N2CCCC2)s1)Nc1nc2c(s1)CCCC2 = -53.9
• CCOc1ccc(C(=O)Cc2ccc3oc(C(=O)O)cc3c2)c(O)c1 = 22.3
• CC1CCN(C(=O)CSc2nnc(-c3cccnc3)n2C2CCCCC2)CC1 = 16.9
• CCOC(=O)c1c(C)oc2c1c(C=NCc1ccccn1)c(O)c1ccccc12 = 29.2
• CCCCC(CC)C(=O)Nc1ccc(Cl)cn1 (centres undefined) = 17.2
• Cc1cc2c(c(=O)n1CCN(C)C)C(c1ccncc1)C(C#N)=C(N)O2 (centres undefined) = 8.13
• CC(=O)Nc1ccn(-c2ccccc2)n1 = -34.3
• CCc1nnc(NC(=O)OCc2ccccc2)s1 = -43.4
